B1: ADD1 (parent)
chain: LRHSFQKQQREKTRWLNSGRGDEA

variants of: B1; test: protein stability index of a GFP-peptide fusion (GPS, HEK-293T) (PSI 1-6); higher = more stable; conditions: c terminus: a fixed tail appended;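 further: lentivirally expressed fusions sorted by FACS into six bins by GFP to DsRed ratio, PSI derived from sequencing read proportions per bin multiplied by bin number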
# protein stability index annotations

construct sequence | protein stability index
LRHSFQKQQKEKTRWLNSGRGDEA [R10K] | 3.9
LRHSFQKQQREKTRWLNPGRGDEA [S18P] | 3.93
LRHSFQKAQREKTRWLNSGRGDEA [Q8A] | 4
